Listed here: items and their measured peptide exchange yield.
# target.system: T1, HLA-A*02:01 (peptide-receptive MHC class I monomer from UV-ligand exchange) (human)
# T1 construct: Monomers were captured on streptavidin-coated plates
# assay.explanation: UV-exchange ELISA (anti-b2m); exchange yield grade: + >=10%, ++ >=20%, +++ >=50%, ++++ >=75%

- binder: "QVDEVVDIMRV [peptide QVDEVVDIMRV (SEQ ID NO 80)]"
  peptide exchange yield: "20 to 50%"
- binder: "ALSNVIHKV [peptide ALSNVIHKV (SEQ ID NO 40)]"
  peptide exchange yield: "20 to 50%"
- binder: "ALAELLHGA [peptide ALAELLHGA (SEQ ID NO 45)]"
  peptide exchange yield: "50 to 75%"
- binder: "QLFSEIHNL [peptide QLFSEIHNL (SEQ ID NO 191)]"
  peptide exchange yield: "≥ 75%"
- binder: "RLWTEIPTAI [peptide RLWTEIPTAI (SEQ ID NO 71)]"
  peptide exchange yield: "50 to 75%"
- binder: "VLVDQSWVL [peptide VLVDQSWVL (SEQ ID NO 16)]"
  peptide exchange yield: "50 to 75%"
- binder: "ILHDINSDGVL [peptide ILHDINSDGVL (SEQ ID NO 85)]"
  peptide exchange yield: "20 to 50%"
- binder: "ALWEKNTHL [peptide ALWEKNTHL (SEQ ID NO 33)]"
  peptide exchange yield: "50 to 75%"
- binder: "RLYTKLLNEA [peptide RLYTKLLNEA (SEQ ID NO 19)]"
  peptide exchange yield: "50 to 75%"
- binder: "SLAADQLLKL [peptide SLAADQLLKL (SEQ ID NO 79)]"
  peptide exchange yield: "20 to 50%"
- binder: "SLQELRLLL [peptide SLQELRLLL (SEQ ID NO 93)]"
  peptide exchange yield: "≥ 75%"
- binder: "ILLTIKDDTIYL [peptide ILLTIKDDTIYL (SEQ ID NO 104)]"
  peptide exchange yield: "50 to 75%"
- binder: "KMLDEILLQL [peptide KMLDEILLQL (SEQ ID NO 164)]"
  peptide exchange yield: "≥ 75%"
- binder: "SLADRLIGV [peptide SLADRLIGV (SEQ ID NO 25)]"
  peptide exchange yield: "≥ 75%"
- binder: "YLAPENGYL [peptide YLAPENGYL (SEQ ID NO 62)]"
  peptide exchange yield: "20 to 50%"
- binder: "NLLEKENYL [peptide NLLEKENYL (SEQ ID NO 57)]"
  peptide exchange yield: "50 to 75%"
